Quick reference: pIC50 of the listed items.
- experimental.system: Factor D (Homo sapiens, UniProt P00746)
- Sequence (P00746 26-253): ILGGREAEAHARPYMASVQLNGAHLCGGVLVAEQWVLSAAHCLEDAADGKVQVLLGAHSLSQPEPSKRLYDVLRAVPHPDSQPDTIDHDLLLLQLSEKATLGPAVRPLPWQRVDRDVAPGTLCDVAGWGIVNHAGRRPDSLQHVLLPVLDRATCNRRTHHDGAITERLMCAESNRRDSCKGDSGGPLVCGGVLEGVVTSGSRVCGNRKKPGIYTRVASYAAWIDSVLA
pIC50: −log10 of the molar value.

These solved cases illustrate the format of a correct answer.
>  <molecule>
Nc1ncnc2c1c(-c1ccc[nH]1)cn2CC(=O)N1C[C@H](F)C[C@H]1C(=O)NCc1cccc(Cl)c1F [Compound 149b]

>  <obs.value>
6.00 to 7.00

$$$$
>  <molecule>
Cc1ncc(-c2cn(CC(=O)N3C[C@H](F)C[C@H]3C(=O)Nc3nc(Br)ccc3C)c3ncnc(N)c23)cn1 [Compound 118a]

>  <obs.value>
< 6.00

$$$$
>  <molecule>
O=C1NCc2cnc3c(ccn3CC(=O)N3C[C@H](F)C[C@H]3C(=O)NCc3cccc(Cl)c3F)c2N1 [Compound 235a]

>  <obs.value>
< 6.00

$$$$
>  <molecule>
Nc1ncnc2c1c1cc(C(F)(F)F)ccc1n2CC(=O)N1[C@@H]2C[C@@H]2C[C@H]1C(=O)Nc1cccc(Br)c1 [Compound 266b]

>  <obs.value>
> 7.00

$$$$
>  <molecule>
C[C@@]12C[C@@H](C(=O)Nc3cccc(Br)n3)N(C(=O)Cn3c4ccc(Br)nc4c4c(N)ncnc43)[C@@H]1C2 [Compound 292a]

>  <obs.value>
> 7.00

$$$$
>  <molecule>
Nc1ncnc2c1c1cc(C(F)(F)F)ccc1n2CC(=O)N1CCS[C@H]1C(=O)Nc1cccc(Br)n1 [Compound 171b]

>  <obs.value>
> 7.00

$$$$

query: Consider the molecule COC(=O)c1ccc2c(c1)c1c(N)ncnc1n2CC(=O)N1[C@@H]2C[C@@H]2C[C@H]1C(=O)Nc1cccc(Br)n1 [Compound 39f] and give its measured pIC50.
result: > 7.00

query: Try the molecule CC(C)(C)OC(=O)Nc1ccc2c(c1)c1c(N)ncnc1n2CC(=O)N1[C@@H]2C[C@@H]2C[C@H]1C(=O)Nc1cccc(Br)n1 [Compound 48d]
result: > 7.00

query: Similarly, C[C@@]12C[C@@H](C(=O)Nc3cccc(Br)n3)N(C(=O)Cn3c4ccc(Br)cc4c4c(N)ncnc43)[C@@H]1C2 [Compound 160a] ?
result: > 7.00

query: Next: Cc1ccnc2c3c(N)ncnc3n(CC(=O)N3[C@@H]4C[C@@H]4C[C@H]3C(=O)Nc3cccc(Br)n3)c12 [Compound 284a]
result: > 7.00

query: Please answer likewise for Nc1nc(N)c2ncn(CC(=O)N3[C@@H]4C[C@@H]4C[C@H]3C(=O)Nc3cccc(Br)n3)c2n1 [Compound 92b]
result: < 6.00

query: // repeat for COC(=O)c1cccc2c1c1c(N)ncnc1n2CC(=O)N1[C@H](C(=O)Nc2cccc(Br)n2)C[C@@]2(C)C[C@@H]12 [Compound 221c] and report
result: > 7.00

query: How about this molecule: COc1cc2c(cc1C)c1c(N)ncnc1n2CC(=O)N1[C@@H]2C[C@@H]2C[C@H]1C(=O)Nc1cccc(Br)n1 [Compound 328f]
result: > 7.00

query: Now consider Nc1ncnc2c1ccn2CC(=O)N1[C@@H]2C[C@@H]2C[C@H]1C(=O)NCc1cccc(Cl)c1F [Compound 81a] and answer again.
result: > 7.00

query: Also check C[C@@]12C[C@@H](C(=O)Nc3cccc(Br)n3)N(C(=O)Cn3c4ccc(C(F)(F)F)nc4c4c(N)ncnc43)[C@@H]1C2 [Compound 231g]
result: > 7.00

query: Can you handle COc1cccc2c1c1c(N)ncnc1n2CC(=O)N1[C@H](C(=O)Nc2cccc(Br)n2)C[C@@]2(C)C[C@@H]12 [Compound 172a] next?
result: > 7.00

query: What do you have for COc1cc2c(cc1C(F)(F)F)c1c(N)ncnc1n2CC(=O)N1[C@@H]2C[C@@H]2C[C@H]1C(=O)Nc1cccc(Br)n1 [Compound 367g] ?
result: > 7.00

query: Also need Cc1ccc(Br)nc1NC(=O)[C@@H]1C[C@@](C)(F)CN1C(=O)Cn1c2ncnc(N)c2c2cc(C(F)(F)F)cc(C)c21 [Compound 323a] , thanks.
result: > 7.00

query: Follow-up entry: Nc1ncnc2c1cnn2CC(=O)N1CCC[C@H]1C(=O)NCc1cccc(Cl)c1F [Compound 78a]
result: 6.00 to 7.00

query: Please answer likewise for CNC(=O)c1ccc2c(c1)c1c(N)ncnc1n2CC(=O)N1[C@H](C(=O)Nc2cccc(Br)n2)C[C@@]2(C)C[C@@H]12 [Compound 196d]
result: > 7.00

query: Then C[C@@]12C[C@@H](C(=O)Nc3cccc(Br)n3)N(C(=O)Cn3c4ccc(-c5ccccc5)cc4c4c(N)ncnc43)[C@@H]1C2 [Compound 270a] ?
result: > 7.00

query: And the next one, Nc1ncnc2c1ncn2CC(=O)N1[C@@H]2C[C@@H]2C[C@H]1C(=O)NCc1ccccc1 [Compound 101b] ?
result: 6.00 to 7.00
